biological target: mouse vascular endothelial growth factor receptor-2 Fc chimera (Flk-1-Fc) (mouse) (UniProt P35918); experiment: radioactive equilibrium binding, 1 nM Flk-1-Fc
Sequence (P35918 20-762, change not shown): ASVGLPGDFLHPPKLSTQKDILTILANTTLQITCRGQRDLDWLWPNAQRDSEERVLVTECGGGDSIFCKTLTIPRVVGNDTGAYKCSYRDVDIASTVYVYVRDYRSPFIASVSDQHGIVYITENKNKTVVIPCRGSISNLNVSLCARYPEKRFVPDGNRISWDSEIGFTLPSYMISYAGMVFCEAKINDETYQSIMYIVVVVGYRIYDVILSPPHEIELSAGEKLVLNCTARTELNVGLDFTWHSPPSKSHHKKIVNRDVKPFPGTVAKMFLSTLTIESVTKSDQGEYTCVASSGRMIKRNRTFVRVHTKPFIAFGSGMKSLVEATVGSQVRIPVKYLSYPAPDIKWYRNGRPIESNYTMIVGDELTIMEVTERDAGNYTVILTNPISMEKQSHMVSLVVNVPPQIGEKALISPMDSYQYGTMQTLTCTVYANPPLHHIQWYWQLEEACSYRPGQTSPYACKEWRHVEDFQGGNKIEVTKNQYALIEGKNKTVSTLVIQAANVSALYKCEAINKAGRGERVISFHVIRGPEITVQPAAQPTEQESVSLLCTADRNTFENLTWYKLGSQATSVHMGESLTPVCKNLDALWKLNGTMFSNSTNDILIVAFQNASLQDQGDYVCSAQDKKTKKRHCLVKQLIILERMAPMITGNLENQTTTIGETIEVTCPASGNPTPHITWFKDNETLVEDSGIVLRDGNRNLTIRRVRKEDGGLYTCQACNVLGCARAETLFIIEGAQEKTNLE
METRIC_NAME: Binding to 1 nM Flk-1, % (%)

For orientation, consider the following solved cases.
* A9 (designed binder) EVVAATPTSLLISWRHPHFPTRYYRITYGETGGNSPVQEFTVPLQPPTATISGLKPGVDYTITGYAVTEGWNDRELFVPISINYRT | 4
* EGE9 (designed binder) EVVAATPTSLLISWRHPHFPTRYYRITYGETGGNSPVQEFTVPLQPPTATISGLKPGVDYTITGYAVTFGPNDRELLTPISINYRT | 1
* F12 (designed binder) EVVAATPTSLLISWRHPHFPTRYYRITYGETGGNSPVQEFTVPLQPPTATISGLKPGVDYTITGYAVTDGRNGHELMTPISINYRT | 1
* A7 (designed binder) EVVAATPTSLLISWRHPHFPTRYYRITYGETGGNSPVQEFTVPLQPPTATISGLKPGVDYTITGYAVTDGPNNRELIVPISINYRT | 2
* A10 (designed binder) EVVAATPTSLLISWRHPHFPTRYYRITYGETGGNSPVQEFTVPLQPPTATISGLKPGVDYTITGYAVTFGWNGRELLTPISINYRT | 4

(I) E21 (designed binder) EVVAATPTSLLISWRHPHFPTRYYRITYGETGGNSPVQEFTVPLQPPTATISGLKPGVDYTITGYAVTWGYKDHELLIPISINYRT
(II) A8 (designed binder) EVVAATPTSLLISWRHPHFPTRYYRITYGETGGNSPVQEFTVPLQPPTATISGLKPGVDYTITGYAVTDGLNGKYLFVPISINYRT
Between I and II , which one shows the smaller Binding to 1 nM Flk-1, % number? Lab log: write the label of the selected item as the result.
I
(I: 1%, II: 4%)

(1) E12 (designed binder) EVVAATPTSLLISWRHPHFPTRYYRITYGETGGNSPVQEFTVPLQPPTATISGLKPGVDYTITGYAVTFARDGHEILTPISINYRT
(2) F1 (designed binder) EVVAATPTSLLISWRHPHFPTRYYRITYGETGGNSPVQEFTVPLQPPTATISGLKPGVDYTITGYAVTSGRNDRELLVPISINYRT
Given the two records 1 and 2 , choose the one whose Binding to 1 nM Flk-1, % value is lower. In your reply, give the label of the chosen option.
1
